Sourced from patent US20170081400A1

Biological target: T1, human TL1A extracellular domain with N-terminal HIS and FLAG tag (human, UniProt O95150 72-251)
T1 sequence: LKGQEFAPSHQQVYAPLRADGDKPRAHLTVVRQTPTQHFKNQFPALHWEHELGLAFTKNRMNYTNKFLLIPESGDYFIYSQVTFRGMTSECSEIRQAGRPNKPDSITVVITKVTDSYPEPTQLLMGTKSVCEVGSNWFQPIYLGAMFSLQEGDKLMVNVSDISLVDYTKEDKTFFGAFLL
Assay: cell-based or functional assay
MEASURE: Fold improvement over 320-179, TL1A induced caspase potency assay in TF-1 cells (fold)
Numbers only, in fold.

Challenge: Form field: reported Fold improvement over 320-179, TL1A induced caspase potency assay in TF-1 cells of 320-589 (antibody, human IgG1, name in Kabat numbering, V domains shown, full-length human IgG1, lambda) VH: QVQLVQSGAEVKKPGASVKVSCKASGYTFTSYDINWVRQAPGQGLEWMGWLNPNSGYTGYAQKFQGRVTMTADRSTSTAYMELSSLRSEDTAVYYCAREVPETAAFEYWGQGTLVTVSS VL: QSVLTQPPSVSGAPGQRVTISCTSSSSDIGAGSGVHWYQQLPGTAPKLLIEGYYNRPSGVPDRFSGSKSGTSASLTITGLLPEDEGDYYCQSYDGTLSALFGGGTKLTVLG
Response given: 1
